# total protein half-life in vivo listing for each entry below
Procedure Text: total protein half-life in vivo (active degradation + dilution); higher = more stable protein
Condition: wild type E. coli NCM3722; growth: N-lim chemostat; doubling time 6 h

Chain	total protein half-life in vivo (h)
MRTLQGWLLPVFMLPMAVYAQEATVKEVHDAPAVRGSIIANMLQEHDNPFTLYPYDTNYLIYTQTSDLNKEAIASYDWAENARKDEVKFQLSLAFPLWRGILGPNSVLGASYTQKSWWQLSNSEESSPFRETNYEPQLFLGFATDYRFAGWTLRDVEMGYNHDSNGRSDPTSRSWNRLYTRLMAENGNWLVEVKPWYVVGNTDDNPDITKYMGYYQLKIGYHLGDAVLSAKGQYNWNTGYGGAELGLSYPITKHVRLYTQVYSGYGESLIDYNFNQTRVGVGVMLNDLF [P0A921]	6.28
MTHVCSVILIRRSFDIYHEQQKISLHNESILLLEKNLADDFAFCSPDTRRLDIDELTVCHYLQNIRQLPRNLGLHSKDRLLINQSPPMPLVTAIFDSFNESGVNSPILSNMLYLSCLSMFSHKKELIPLLFNSISTVSGKVERLISFDIAKRWYLRDIAERMYTSESLIKKKLQDENTCFSKILLASRMSMARRLLELRQIPLHTIAEKCGYSSTSYFINTFRQYYGVTPHQFAQHSPGTFS	0.171
MSNTDASGEKRVTGTSERREQIIQRLRQQGSVQVNDLSALYGVSTVTIRNDLAFLEKQGIAVRAYGGALICDSTTPSVEPSVEDKSALNTAMKRSVAKAAVELIQPGHRVILDSGTTTFEIARLMRKHTDVIAMTNGMNVANALLEAEGVELLMTGGHLRRQSQSFYGDQAEQSLQNYHFDMLFLGVDAIDLERGVSTHNEDEARLNRRMCEVAERIIVVTDSSKFNRSSLHKIIDTQRIDMIIVDEGIPADSLEGLRKAGVEVILVGE [P0ACK2]	4.89
MIDFGNFYSLIAKNHLSHWLETLPAQIANWQREQQHGLFKQWSNAVEFLPEIKPYRLDLLHSVTAESEEPLSAGQIKRIETLMRNLMPWRKGPFSLYGVNIDTEWRSDWKWDRVLPHLSDLTGRTILDVGCGSGYHMWRMIGAGAHLAVGIDPTQLFLCQFEAVRKLLGNDQRAHLLPLGIEQLPALKAFDTVFSMGVLYHRRSPLEHLWQLKDQLVNEGELVLETLVIDGDENTVLVPGDRYAQMRNVYFIPSALALKNWLKKCGFVDIRIADVSVTTTEEQRRTEWMVTESLADFLDPHDPGKTVEGYPAPKRAVLIARKP	5.59
MKCPVCHQGEMVSGIKDIPYTFRGRKTVLKGIHGLYCVHCEESIMNKEESDAFMAQVKAFRASVNAETVAPEFIVKVRKKLSLTQKEASEIFGGGVNAFSRYEKGNAQPHPSTIKLLRVLDKHPELLNEIR	0.993
MSEQLTDQVLVERVQKGDQKAFNLLVVRYQHKVASLVSRYVPSGDVPDVVQEAFIKAYRALDSFRGDSAFYTWLYRIAVNTAKNYLVAQGRRPPSSDVDAIEAENFESGGALKEISNPENLMLSEELRQIVFRTIESLPEDLRMAITLRELDGLSYEEIAAIMDCPVGTVRSRIFRAREAIDNKVQPLIRR [P0AGB6]	5.76
MKRAPLITGLLLISTSCAYASSGGCGADSTSGATNYSSVVDDVTVNQTDNVTGREFTSATLSSTNWQYACSCSAGKAVKLVYMVSPVLTTTGHQTGYYKLNDSLDIKTTLQANDIPGLTTDQVVSVNTRFTQIKNNTVYSAATQTGVCQGDTSRYGPVNIGANTTFTLYVTKPFLGSMTIPKTDIAVIKGAWVDGMGSPSTGDFHDLVKLSIQGNLTAPQSCKINQGDVIKVNFGFINGQKFTTRNAMPDGFTPVDFDITYDCGDTSKIKNSLQMRIDGTTGVVDQYNLVARRRSSDNVPDVGIRIENLGGGVANIPFQNGILPVDPSGHGTVNMRAWPVNLVGGELETGKFQGTATITVIVR	5.8
MQAEILLTLKLQQKLFADPRRISLLKHIALSGSISQGAKDAGISYKSAWDAINEMNQLSEHILVERATGGKGGGGAVLTRYGQRLIQLYDLLAQIQQKAFDVLSDDDALPLNSLLAAISRFSLQTSARNQWFGTITARDHDDVQQHVDVLLADGKTRLKVAITAQSGARLGLDEGKEVLILLKAPWVGITQDEAVAQNADNQLPGIISHIERGAEQCEVLMALPDGQTLCATVPVNEATSLQQGQNVTAYFNADSVIIATLC [P0A9G8]	5.7
MTTKKADYIWFNGEMVRWEDAKVHVMSHALHYGTSVFEGIRCYDSHKGPVVFRHREHMQRLHDSAKIYRFPVSQSIDELMEACRDVIRKNNLTSAYIRPLIFVGDVGMGVNPPAGYSTDVIIAAFPWGAYLGAEALEQGIDAMVSSWNRAAPNTIPTAAKAGGNYLSSLLVGSEARRHGYQEGIALDVNGYISEGAGENLFEVKDGVLFTPPFTSSALPGITRDAIIKLAKELGIEVREQVLSRESLYLADEVFMSGTAAEITPVRSVDGIQVGEGRCGPVTKRIQQAFFGLFTGETEDKWGWLDQVNQ [P0AB80]	3.49
MVFRIASSPYTHNQRQTSRIMLLVLLAAVPGIAAQLWFFGWGTLVQILLASVSALLAEALVLKLRKQSVAATLKDNSALLTGLLLAVSIPPLAPWWMVVLGTVFAVIIAKQLYGGLGQNPFNPAMIGYVVLLISFPVQMTSWLPPHEIAVNIPGFIDAIQVIFSGHTASGGDMNTLRLGIDGISQATPLDTFKTSVRAGHSVEQIMQYPIYSGILAGAGWQWVNLAWLAGGVWLLWQKAIRWHIPLSFLVTLALCAMLGWLFSPETLAAPQIHLLSGATMLGAFFILTDPVTASTTNRGRLIFGALAGLLVWLIRSFGGYPDGVAFAVLLANITVPLIDYYTRPRVYGHRKG	6.53
